// provenance: the Human Domainome abundance scans (Beltran et al. 2025)

B1: Histone H1t, residues 44 to 112; numbered along this chain, P22492 (parent)
chain: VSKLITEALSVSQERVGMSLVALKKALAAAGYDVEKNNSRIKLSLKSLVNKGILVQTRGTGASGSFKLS

# Variants of: B1
# assayProtocol: abundance fitness (aPCA) (normalised: wild type 0, dead -1); higher = more abundant; growth selection in yeast, the domain comes from the species named
# appliedConditions: Homo sapiens
Use 0.02 as the dividing line for abundance fitness, with the line itself on the criterion met side and lower values as criterion not met.

A selection of reference data follows.
[[record]]
mutationstring = "G64I"
grouplabel = "criterion met"

[[record]]
mutationstring = "K24Y"
grouplabel = "criterion not met"

[[record]]
mutationstring = "V49I"
grouplabel = "criterion not met"

[[record]]
mutationstring = "K25E"
grouplabel = "criterion not met"


Continue with the next variant.
IN: hey, is abundance fitness for this one >= 0.02? R58E
OUT: criterion met
